# Tested on: HTT mRNA
# test: Splicing RT-qPCR assay, HTT canonical (CJ) and alternative (AJ) junction mRNA
# Assay type: cell-based
# protocol_conditions: Homo sapiens; Table 7; AC50 = 50% response in AJ mRNA increase; RT-qPCR, A673 or K562 cells, 24 hours treatment
Structures can show the parent of a compound that is named as a salt.
metric_name: EC50

Would you please look over these solved cases?
Cn1cc2cc(-c3cc4cn(C5CCNCC5)nc4s3)cc(F)c2n1 [Compound 122] | < 0.1 µM
Cc1cn2cc(-n3cc4cc(C5CCNCC5)sc4n3)cc(Cl)c2n1 [Compound 165] | < 0.1 µM

Task: Find EC50 for Cn1cc2cc(N3Cc4sc(C5CCNCC5)cc4C3=O)ccc2n1 [Compound 1120] on HTT mRNA and write it down.
Output: 1 to 10 µM

Task: Recall the reported EC50 of Cn1cc2cc(-c3cc4cn([C@H]5CCNC[C@H]5F)nc4s3)cc(F)c2n1 [Compound 182] on HTT mRNA and write it down.
Output: 0.1 to 1 µM

Task: Fetch value of EC50 on HTT mRNA for Cc1cn2cc(-c3nc4sc(C5CCNCC5)cc4s3)cc(C)c2n1 [Compound 140, hydrochloride] .
Output: < 0.1 µM
